Target: Prostaglandin E2 receptor EP4 subtype (Mus musculus)
Sequence (P32240 whole entry): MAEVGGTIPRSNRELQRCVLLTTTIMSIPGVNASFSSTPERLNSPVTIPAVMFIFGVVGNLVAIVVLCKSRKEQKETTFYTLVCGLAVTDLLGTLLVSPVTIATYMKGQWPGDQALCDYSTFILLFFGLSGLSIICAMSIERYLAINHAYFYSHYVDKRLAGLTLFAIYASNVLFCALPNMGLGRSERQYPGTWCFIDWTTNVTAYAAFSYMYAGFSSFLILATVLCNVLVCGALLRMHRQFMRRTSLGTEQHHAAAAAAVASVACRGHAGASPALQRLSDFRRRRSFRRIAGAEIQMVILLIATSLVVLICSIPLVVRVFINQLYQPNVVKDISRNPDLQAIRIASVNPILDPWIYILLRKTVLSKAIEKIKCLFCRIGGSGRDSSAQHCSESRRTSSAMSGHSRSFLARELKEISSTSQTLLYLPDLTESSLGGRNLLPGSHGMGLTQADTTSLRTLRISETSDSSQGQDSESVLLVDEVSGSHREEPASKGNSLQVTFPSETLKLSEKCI
Assay: Effective concentration for increased intracellular c-AMP production by mouse Prostanoid EP4 receptor
Format: functional, cell-based
pEC50: −log10 of the molar value.
testReadout: pEC50

// worked examples, pEC50 included
[[record]]
molecule = "COCc1cccc(C[C@H](O)/C=C/[C@H]2[C@H](O)CC(=O)[C@@H]2CCSCCCC(=O)O)c1"
testreadout = "pEC50"
numericreadout = 8.80

[[record]]
molecule = "CCCCC[C@H](O)/C=C/[C@H]1[C@H](O)CC(=O)[C@@H]1CCCCCCC(=O)O [ALPROSTADIL]"
testreadout = "pEC50"
numericreadout = 8.44

[[record]]
molecule = "CCCCC[C@H](O)/C=C/[C@H]1[C@H](O)CC(=O)[C@@H]1CCCCSCC(=O)O"
testreadout = "pEC50"
numericreadout = 7.34

[[record]]
molecule = "Cc1cc(C[C@H](O)/C=C/[C@H]2[C@H](O)CC(=O)[C@@H]2CCSCCCC(=O)O)ccc1O"
testreadout = "pEC50"
numericreadout = 7.70


1 = Cc1cc(C[C@H](O)/C=C/[C@@H]2[C@@H](C/C=C/CCCC(=O)O)[C@H](Cl)C[C@H]2O)ccc1O
2 = COCc1cccc(C[C@H](O)/C=C/[C@@H]2[C@@H](C/C=C/CCCC(=O)O)[C@H](Cl)C[C@H]2O)c1
3 = COCc1cccc(C[C@H](O)/C=C/[C@@H]2[C@@H](CCSCCCC(=O)O)[C@H](F)C[C@H]2O)c1
stdin: Order the records so the highest pEC50 appears first and the lowest last. Your task in answering is to list the labels in the requested order.
stdout: 2, 1, 3
(2: 8.48, 1: 7.36, 3: 6.57)

----------
Target: Prostaglandin E2 receptor EP1 subtype (Mus musculus, UniProt P35375)
Sequence (P35375 whole entry): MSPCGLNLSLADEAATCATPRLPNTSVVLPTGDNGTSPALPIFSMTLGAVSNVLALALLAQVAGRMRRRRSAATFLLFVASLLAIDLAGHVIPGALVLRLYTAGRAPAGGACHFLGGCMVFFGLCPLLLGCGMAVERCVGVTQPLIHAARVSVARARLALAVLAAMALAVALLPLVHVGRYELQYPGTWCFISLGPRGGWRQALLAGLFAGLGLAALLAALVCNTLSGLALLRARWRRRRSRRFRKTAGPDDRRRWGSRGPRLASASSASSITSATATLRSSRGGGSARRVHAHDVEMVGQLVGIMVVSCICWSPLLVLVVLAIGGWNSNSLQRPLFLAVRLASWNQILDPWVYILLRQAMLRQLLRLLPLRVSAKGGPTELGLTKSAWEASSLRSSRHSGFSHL
testReadout: Ki (nM)

Would you please look over these solved cases?
[[record]]
smilesstr = "COCc1cccc(C[C@H](O)/C=C/[C@@H]2[C@@H](C/C=C/CCCC(=O)O)[C@H](F)C[C@H]2O)c1"
testreadout = "Ki"
numericreadout = 1700

[[record]]
smilesstr = "Cc1cc(C[C@H](O)/C=C/[C@@H]2[C@@H](C/C=C/CCCC(=O)O)[C@H](Cl)C[C@H]2O)ccc1O"
testreadout = "Ki"
numericreadout = 3100

[[record]]
smilesstr = "COCc1cccc(C[C@H](O)/C=C/[C@@H]2[C@@H](C/C=C/CCCC(=O)O)[C@H](Cl)C[C@H]2O)c1"
testreadout = "Ki"
numericreadout = 980


I = CCCCC[C@H](O)/C=C/[C@H]1[C@H](O)CC(=O)[C@@H]1CCCCCCC(=O)O
II = CCCCC[C@H](O)/C=C/[C@H]1[C@H](O)CC(=O)[C@@H]1CCSCCCC(=O)O
stdin: Problem: Given the entries I and II , determine which has the lower reported Ki. Your answer should be the label attached to the chosen record.
stdout: I
(I: 6 nM, II: 52 nM)
